target.desc: F508delCFTR (Homo sapiens, UniProt P13569, DEL508-508)
Construct: expressed in transfected cells; host or cells: CFBE4lo-F508delCFTR-HRP cells (human lung derived epithelial cell line, doxycycline-inducible)
Sequence (P13569 with tags, fused parts or gaps DEL508-508): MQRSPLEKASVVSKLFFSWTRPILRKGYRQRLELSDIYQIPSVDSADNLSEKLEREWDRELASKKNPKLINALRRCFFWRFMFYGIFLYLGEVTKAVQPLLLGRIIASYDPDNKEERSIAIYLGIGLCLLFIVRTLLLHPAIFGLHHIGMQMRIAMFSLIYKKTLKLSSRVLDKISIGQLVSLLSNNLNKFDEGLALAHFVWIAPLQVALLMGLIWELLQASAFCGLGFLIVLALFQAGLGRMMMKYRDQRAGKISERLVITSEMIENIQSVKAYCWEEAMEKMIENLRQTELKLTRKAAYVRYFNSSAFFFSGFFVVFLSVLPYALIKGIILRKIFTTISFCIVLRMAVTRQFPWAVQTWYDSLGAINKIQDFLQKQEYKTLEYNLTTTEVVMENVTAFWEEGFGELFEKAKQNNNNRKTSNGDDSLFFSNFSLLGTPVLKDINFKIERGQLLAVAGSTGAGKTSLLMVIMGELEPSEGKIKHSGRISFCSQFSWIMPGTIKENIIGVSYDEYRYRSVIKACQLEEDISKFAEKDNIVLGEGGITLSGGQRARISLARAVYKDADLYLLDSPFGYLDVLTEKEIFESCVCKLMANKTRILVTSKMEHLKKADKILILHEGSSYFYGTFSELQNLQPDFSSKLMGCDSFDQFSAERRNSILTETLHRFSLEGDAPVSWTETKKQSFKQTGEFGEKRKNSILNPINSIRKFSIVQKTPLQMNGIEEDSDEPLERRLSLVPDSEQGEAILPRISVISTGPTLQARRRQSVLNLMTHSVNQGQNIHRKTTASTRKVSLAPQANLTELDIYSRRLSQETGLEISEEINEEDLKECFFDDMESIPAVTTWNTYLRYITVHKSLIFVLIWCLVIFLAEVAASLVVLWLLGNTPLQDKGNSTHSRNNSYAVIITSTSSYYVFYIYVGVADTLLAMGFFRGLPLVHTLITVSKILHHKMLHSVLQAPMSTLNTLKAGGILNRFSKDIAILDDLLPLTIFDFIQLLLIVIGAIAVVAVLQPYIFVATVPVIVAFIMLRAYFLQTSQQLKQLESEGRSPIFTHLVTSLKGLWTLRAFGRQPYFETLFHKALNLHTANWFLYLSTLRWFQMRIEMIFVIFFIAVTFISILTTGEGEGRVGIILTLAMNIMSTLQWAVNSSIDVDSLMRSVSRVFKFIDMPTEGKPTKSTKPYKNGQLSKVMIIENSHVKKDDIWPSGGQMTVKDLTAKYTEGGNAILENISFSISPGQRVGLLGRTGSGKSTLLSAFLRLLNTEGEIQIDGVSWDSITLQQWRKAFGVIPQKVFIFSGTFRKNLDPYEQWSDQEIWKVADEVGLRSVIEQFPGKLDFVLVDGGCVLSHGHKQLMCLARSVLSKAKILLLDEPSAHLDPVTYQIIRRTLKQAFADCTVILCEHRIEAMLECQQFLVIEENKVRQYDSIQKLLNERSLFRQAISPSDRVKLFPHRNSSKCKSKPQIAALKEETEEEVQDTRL
assay.comment: Cell Surface Expression-Horse Radish Peroxidase (CSE-HRP) Assay
Format: cell-based
reported.conditions: with co-corrector 2 μM 3-[(2R,4R)-4-({[1-(2,2-difluoro-1,3-benzodioxol-5-yl)cyclopropyl]carbonyl}amino)-7-methoxy-3,4-dihydro-2H-chromen-2-yl]benzoic acid; CFBE4lo-F508delCFTR-HRP cells, 18-24 hours at 33° C.; read-out: EC50 (with co-corrector)
pEC50: −log10 of the molar value.
I'd appreciate it if you could supply pEC50 values for the items below.

Batch lookup, pEC50 per entry.
1. COc1ccc(C2CCC2)c2c1[C@H](C(=O)NS(=O)(=O)c1cccc3nc(C)ccc13)CCO2
2. CCCS(=O)(=O)NC(=O)C1COc2ccc(Cl)cc21 (stereo not shown)
3. COc1ccc(Br)c2c1[C@@H](C(=O)NS(=O)(=O)c1cccc3ccccc13)CCO2
4. COc1ccc(C2CCC2)c2c1[C@@H](C(=O)NS(=O)(=O)c1cccc3nc(C)ccc13)CCO2

Solution:
1. > 5.52
2. ≤ 5.00
3. 5.00 to 5.52
4. 5.00 to 5.52
